Some compounds, each annotated with its measured pIC50.
Biological target: Caspase-3 (Homo sapiens)
Sequence (P42574 29-175 limits assumed): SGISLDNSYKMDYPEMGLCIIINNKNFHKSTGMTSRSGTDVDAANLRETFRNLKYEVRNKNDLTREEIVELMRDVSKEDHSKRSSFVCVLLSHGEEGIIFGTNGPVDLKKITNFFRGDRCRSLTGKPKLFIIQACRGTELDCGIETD
Sequence (P42574 176-277 limits assumed): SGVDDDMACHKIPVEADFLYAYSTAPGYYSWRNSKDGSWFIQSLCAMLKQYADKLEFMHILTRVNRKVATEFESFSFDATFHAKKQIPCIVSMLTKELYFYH
Experiment: Inhibition of human recombinant caspase 3 assessed as accumulation of fluorogenic product by fluorometric assay
pIC50: −log10 of the molar value.

[
  {
    "TEST SMILES": "N#CC(C#N)=C1C(=O)N(Cc2ccc(Cl)c(Cl)c2)c2ccc(S(=O)(=O)N3CCCCC3)cc21",
    "pIC50": 6.28
  },
  {
    "TEST SMILES": "COc1ccc(CN2C(=O)C(=C(C#N)C#N)c3cc(S(=O)(=O)N4CCSCC4)ccc32)cc1",
    "pIC50": 5.78
  },
  {
    "TEST SMILES": "O=C1C(=O)N(Cc2ccccc2)c2ccc(S(=O)(=O)N3CCSCC3)cc21",
    "pIC50": 5.99
  },
  {
    "TEST SMILES": "COc1ccc(CN2C(=O)C(=C(C#N)C#N)c3cc(S(=O)(=O)N4CCCCC4)ccc32)cc1",
    "pIC50": 5.85
  },
  {
    "TEST SMILES": "N#CC(C#N)=C1C(=O)N(Cc2ccccc2)c2ccc(S(=O)(=O)N3CCCC3)cc21",
    "pIC50": 6.17
  },
  {
    "TEST SMILES": "N#CC(C#N)=C1C(=O)N(Cc2ccccc2)c2ccc(S(=O)(=O)N3CCC3)cc21",
    "pIC50": 6.49
  },
  {
    "TEST SMILES": "N#CC(C#N)=C1C(=O)N(Cc2ccccc2)c2ccc(S(=O)(=O)N3CCCCC3)cc21",
    "pIC50": 6.23
  },
  {
    "TEST SMILES": "N#CC(C#N)=C1C(=O)N(Cc2ccc(Cl)c(Cl)c2)c2ccc(S(=O)(=O)N3CCCC3)cc21",
    "pIC50": 6.14
  },
  {
    "TEST SMILES": "O=C1C(=O)N(Cc2ccccc2)c2ccc(S(=O)(=O)N3CCC3)cc21",
    "pIC50": 6.94
  }
]
